From: PubChem BioAssay (Tox21)

- testedTarget: Cytochrome P450 2C19 (Homo sapiens) (UniProt P33261)
- Sequence (P33261 whole entry, looked up): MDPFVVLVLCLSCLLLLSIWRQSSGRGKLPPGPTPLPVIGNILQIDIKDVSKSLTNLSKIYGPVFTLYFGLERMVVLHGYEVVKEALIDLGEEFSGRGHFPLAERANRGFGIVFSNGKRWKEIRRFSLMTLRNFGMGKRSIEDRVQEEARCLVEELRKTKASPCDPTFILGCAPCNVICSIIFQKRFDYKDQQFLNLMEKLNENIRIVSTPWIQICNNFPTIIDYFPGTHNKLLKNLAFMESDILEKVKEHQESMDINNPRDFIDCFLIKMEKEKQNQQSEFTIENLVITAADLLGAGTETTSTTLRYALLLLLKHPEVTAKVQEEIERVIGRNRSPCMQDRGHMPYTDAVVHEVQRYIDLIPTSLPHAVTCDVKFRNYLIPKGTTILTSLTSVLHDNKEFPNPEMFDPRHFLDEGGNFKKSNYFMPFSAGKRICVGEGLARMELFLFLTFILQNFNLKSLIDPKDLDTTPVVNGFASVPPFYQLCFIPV
- methodDescription: Cytochrome P450 Family 2 Subfamily C Member 19 (CYP2C19) small molecule antagonists: luciferase reporter qHTS assay (AID 1671197); note: nearly all actives have a fitted effect of over 65% in size
- conditionContext: P450-Glo CYP2C19 enzyme, luciferin luminescence, 1 h; series mostly up to 115 µM
Records with an inconclusive call do not appear. Calls of active or inactive are those of the source. Calls come from the whole dose curve; as a rule, active = well fitted inhibition curve with a large enough effect in the repeat runs; inconclusive = weak or mixed curves; inactive = no such curve, though single readings can be large or run the other way.
Result category, one only: active, inactive

-- ask For CCOP(=S)(OCC)Oc1nc(Cl)n(C(C)C)n1 , what call appears in the results of this test?
-- reply active

-- ask For CN1CCC(O)(c2ccc(F)cc2)C(C(=O)c2ccc(F)cc2)C1 (configuration not stated) , what call appears in the results of this test?
-- reply inactive

-- ask For OC(c1ccccc1)(c1ccccc1)C1CCNCC1 , what call appears in the results of this test?
-- reply active

-- ask For CCOP(=S)(Oc1cnc(C(C)(C)C)nc1)OC(C)C (configuration not stated) , what call appears in the results of this test?
-- reply active

-- ask For CCOc1nc(C(Cl)(Cl)Cl)ns1 , what call appears in the results of this test?
-- reply inactive

-- ask For CCCCOC(=O)[C@@H](C)Oc1ccc(Oc2ccc(C#N)cc2F)cc1 , what call appears in the results of this test?
-- reply active

-- ask For O=C(O)c1cccc(Cl)c1 , what call appears in the results of this test?
-- reply inactive
